measured.on: C-X-C chemokine receptor type 4 (Homo sapiens)
assay.comment: Binding affinity to human CXCR4 in human MDA-MB-231 cells assessed as inhibition of CXCR4-targeted conjugate formation preincubated with compound followed by biotinylated-TN14003 addition and measured after 45 mins by competition based microscopic analysis
Format: cell-based
reported.property: EC (nM)
Hi! Could you send only the number? It should be in nM, unit omitted.

Solved entries:
{"test.smiles": "N=C(N)NCCC[C@H](N)C(=O)NC1CCN(C(=O)CCn2ccc3ccncc32)CC1", "EC, nM": 1}
{"test.smiles": "O=C(Nc1ccc2c(c1)OCO2)C1CCN(C(=O)NC2CCN(Cc3ccccc3)CC2)CC1", "EC, nM": 10}
{"test.smiles": "N[C@@H](C(=O)NC1CCN(C(=O)CCn2ccc3ccncc32)CC1)c1ccccc1", "EC, nM": 100}

input: Record request: EC value, item C[C@@H](NC(=O)[C@@H](N)c1ccccc1)C(=O)N1CCN(C(=O)CCn2ccc3ccncc32)CC1
output: 100

input: Record request: EC value, item NC(=O)C1CCN(Cc2ccc(NC(=O)CCc3c[nH]c4ccccc34)cc2)CC1
output: 1000
